All values here come from PubChem BioAssay.

Assay: TLR3 IRF3 reporter activation blockers – cell-based, poly I:C stimulus, luciferase, 10K MLSCN set, primary screen (AID 602277)
Details: HEK293-TLR3 RL24 IRF3 luciferase reporter, at 10 µM, active compounds read high
Listed below: inhibition values for each entry.
Number only, in %; omit the unit.

Some compounds with recorded inhibition:
Compound: O=S(=O)(NCC1CCCO1)c1ccc(S(=O)(=O)N2CCc3ccccc3C2)cc1 (stereo not given)
inhibition (%): 19.5
--
Compound: O=c1c2ccccc2nnn1CSc1nc2cc(Cl)ccc2c(=O)n1Cc1ccco1
inhibition (%): -12.2
--
Compound: CN(C)CCOC(c1ccccc1)c1ccccc1
inhibition (%): 38.5
--
Compound: CN(Cc1nc(-c2ccncc2)no1)S(=O)(=O)c1ccc(Br)cc1
inhibition (%): -6.05
--
Compound: FC(F)(F)COc1nc(N2CCCCC2)nc(N2CCNCC2)n1
inhibition (%): 21.6

In the following, a different compound is considered.
Query string: Give me measured inhibition, please, for this compound: CCOc1ccccc1NC(=O)N1CCCC1C(=O)Nc1nnc(CC)s1 (stereo not given)
Result string: 12.7
